log10 IC50 values by entry
System: HCT-116
assay.protocol: Antiproliferative activity against human HCT116 cells incubated for 48 hrs
Assay type: functional, cell-based
applied.conditions: HCT-116, 48 h
Recall that a logarithmic scale is used here: each number is log10 of IC50 in nM.

Example entries begin here.
molecule	assay.metric	assay.result
CC[C@H]1CCC[C@H](O[C@H]2CC[C@H](N(C)CCCCCC[n+]3ccc4ccccc4c3)[C@@H](C)O2)[C@@H](C)C(=O)C2=C[C@@H]3[C@@H](C=C[C@@H]4C[C@@H](O[C@@H]5O[C@@H](C)[C@H](OC)[C@@H](OC)[C@H]5OC)C[C@@H]34)[C@@H]2CC(=O)O1.[Br-]	log10 IC50	3.45
CC[C@H]1CCC[C@H](O[C@H]2CC[C@H](N(C)CCCCCC[n+]3ccccc3)[C@@H](C)O2)[C@@H](C)C(=O)C2=C[C@@H]3[C@@H](C=C[C@@H]4C[C@@H](O[C@@H]5O[C@@H](C)[C@H](OC)[C@@H](OC)[C@H]5OC)C[C@@H]34)[C@@H]2CC(=O)O1	log10 IC50	3.99
CC[C@H]1CCC[C@H](O[C@H]2CC[C@H](N(C)C)[C@@H](C)O2)[C@@H](C)C(=O)C2=C[C@@H]3[C@@H](C=C[C@@H]4C[C@@H](O[C@@H]5O[C@@H](C)[C@H](OC)[C@@H](OC)[C@H]5OC)C[C@@H]34)[C@@H]2CC(=O)O1 [SPINOSYN A]	log10 IC50	4.05
CC[C@H]1CCC[C@H](O[C@H]2CC[C@H](N(C)CCC[P+](c3ccccc3)(c3ccccc3)c3ccccc3)[C@@H](C)O2)[C@@H](C)C(=O)C2=C[C@@H]3[C@@H](C=C[C@@H]4C[C@@H](O[C@@H]5O[C@@H](C)[C@H](OC)[C@@H](OC)[C@H]5OC)C[C@@H]34)[C@@H]2CC(=O)O1	log10 IC50	2.00
CC[C@H]1CCC[C@H](O[C@H]2CC[C@H](N(C)CCCCCC[P+](c3ccccc3)(c3ccccc3)c3ccccc3)[C@@H](C)O2)[C@@H](C)C(=O)C2=C[C@@H]3[C@@H](C=C[C@@H]4C[C@@H](O[C@@H]5O[C@@H](C)[C@H](OC)[C@@H](OC)[C@H]5OC)C[C@@H]34)[C@@H]2CC(=O)O1.[Br-]	log10 IC50	2.48

Input `CC[C@H]1CCC[C@H](OC(=O)CCC[P+](c2ccccc2)(c2ccccc2)c2ccccc2)[C@@H](C)C(=O)C2=C[C@@H]3[C@@H](C=C[C@@H]4C[C@@H](O[C@@H]5O[C@@H](C)[C@H](OC)[C@@H](OC)[C@H]5OC)C[C@@H]34)[C@@H]2CC(=O)O1` . Output log10 IC50: 2.90
